The reported measurements were obtained from ChEMBL document CHEMBL1139795.

measured.target: C-C chemokine receptor type 2 (Homo sapiens, UniProt P41597)
Sequence (P41597 whole entry): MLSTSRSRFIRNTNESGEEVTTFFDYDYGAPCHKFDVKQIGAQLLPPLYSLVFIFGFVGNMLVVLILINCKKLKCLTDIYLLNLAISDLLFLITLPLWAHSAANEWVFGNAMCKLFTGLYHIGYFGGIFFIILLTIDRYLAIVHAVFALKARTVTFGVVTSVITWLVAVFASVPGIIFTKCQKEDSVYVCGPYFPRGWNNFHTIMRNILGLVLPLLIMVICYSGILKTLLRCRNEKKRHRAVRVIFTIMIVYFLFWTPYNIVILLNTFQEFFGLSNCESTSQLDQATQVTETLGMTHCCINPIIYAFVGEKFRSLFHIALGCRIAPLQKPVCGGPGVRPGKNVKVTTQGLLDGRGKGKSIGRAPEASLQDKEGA
assay.details: Displacement of [125]MCP1 from CCR2 in human PBMCs
measured.metric: IC50 (µM)

Cc1ccc(CNC[C@H](NC(=O)CNC(=O)c2cccc(C(F)(F)F)c2)C(=O)Nc2ccccc2)c(C)c1 = 1.2

I. Cc1ccc(CNC[C@H](NC(=O)CNC(=O)c2cccc(C(F)(F)F)c2)C(=O)NC(C)(C)CO)c(C)c1
II. CCNC(=O)[C@H](CCNCc1ccc(C)cc1C)NC(=O)CNC(=O)c1cccc(C(F)(F)F)c1
Q) I or II : whose IC50 is greater? // return label of chosen record
A) II

A. C=CCNC(=O)[C@H](CNCc1ccc(C)cc1C)NC(=O)CNC(=O)c1cccc(C(F)(F)F)c1
B. Cc1ccc(CNC[C@H](NC(=O)CNC(=O)c2cc(C(F)(F)F)ccc2NCC(C)C)C(=O)NC(C)(C)C)c(C)c1
Q) Record comparison, field IC50: mark the lower of A and B . // return label of chosen record
A) B
(B: 0.023 µM, A: 0.2 µM)

I. COC(=O)[C@H](CNCc1ccc(C)cc1C)NC(=O)CNC(=O)c1cccc(C(F)(F)F)c1
II. Cc1ccc(CN2CC[C@@H](NC(=O)CNC(=O)c3cccc(C(F)(F)F)c3)C2)c(C)c1
III. Cc1ccc(CNC[C@H](NC(=O)CNC(=O)c2cc(NCC(C)C)cc(C(F)(F)F)c2)C(=O)NC(C)(C)C)c(C)c1
Q) Thanks in advance: please rank these 3 entries by IC50, highest to lowest. Write out the labels following the order that was asked for.
A) I, III, II
(I: 1.5 µM, III: 0.13 µM, II: 0.017 µM)
